- Test system: SH-SY5Y cells
- cond: NOI bioassay cytotoxicity; dosing range all
property: IC10, linear transformed

Look over these answered cases.
>  <compound>
Cc1cc(Cc2cc(C)c(O)c(C)c2)cc(C)c1O [TMBPF, Bis(3,5-dimethyl-4-hydroxyphenyl)methane]

>  <property>
IC10, linear transformed

>  <recorded result>
1.27E-05

$$$$
>  <compound>
C=CCOc1ccc(S(=O)(=O)c2ccc(O)cc2)cc1 [BPS-MAE, 4-[[4-(Allyloxy)phenyl]sulfonyl]phenol]

>  <property>
IC10, linear transformed

>  <recorded result>
1.36E-04

$$$$
>  <compound>
CCC(C)(c1ccc(O)cc1)c1ccc(O)cc1

>  <property>
IC10, linear transformed

>  <recorded result>
1.67E-04

$$$$

Which IC10, linear transformed is listed for `CC(c1ccc(O)cc1)c1ccc(O)cc1` ?
2.79E-04

###

- Test system: MCF7 (ARE/MMP)
- cond: cytotoxicity, MCF7, ARE readout
Measured IC10, MCF7, ARE, listed per entry.
Response body: numeric value in µM, unit text excluded.

>  <molecule>
CCC(C)(c1ccc(O)cc1)c1ccc(O)cc1 [BPB, 4,4'-(Butane-2,2-diyl)diphenol]

>  <study target>
MCF7 (ARE/MMP)

>  <IC10, MCF7, ARE, µM>
37.3

$$$$

Lab note: next molecule to report on.
Tell me the measured IC10, MCF7, ARE of CC(C)(c1ccc(OCC2CO2)cc1)c1ccc(OCC2CO2)cc1 (centres unmarked) [BADGE, Bisphenol A diglycidyl ether] , please.
38.5

###

- System: MCF7 (ARE/MMP)
- cond: MMP bioassay cytotoxicity; dosing range all; linear model
property: IC10, linear
Answer field: number only, no words.

>  <molecule>
COC(=O)C(c1ccc(O)cc1)c1ccc(O)cc1 [Bz, Methyl bis(4-hydroxyphenyl)acetate]

>  <recorded result>
3.44E-04

$$$$
>  <molecule>
CC(C)(c1cc(Cl)c(O)c(Cl)c1)c1cc(Cl)c(O)c(Cl)c1 [TCBPA, 2,2',6,6'-Tetrachlorobisphenol A]

>  <recorded result>
7.25E-05

$$$$
>  <molecule>
Oc1ccc(Sc2ccc(O)cc2)cc1 [BPT, 4,4'-Thiodiphenol]

>  <recorded result>
2.97E-04

$$$$

Requested read-out IC10, linear, target or system MCF7 (ARE/MMP), entry Oc1ccc(C2(c3ccc(O)cc3)CCCCC2)cc1 [BPZ, 1,1'-Bis(4-hydroxyphenyl)cyclohexane]
3.30E-05

###

- System: MCF7 (ARE/MMP)
- cond: Bioassay ARE; cytotoxicity; dosing range all; log-logistic model fit
Rule: measured logIC10 below -4 gets condition met; anything equal to or greater than -4 gets condition not met.

>  <compound>
COC(=O)C(c1ccc(O)cc1)c1ccc(O)cc1 [Bz, Methyl bis(4-hydroxyphenyl)acetate]

>  <class name>
condition not met

$$$$
>  <compound>
CC(C)(c1ccc(O)c(-c2ccccc2)c1)c1ccc(O)c(-c2ccccc2)c1 [BPPH, 2,2-Bis(2-hydroxy-5-biphenylyl)propane]

>  <class name>
condition met

$$$$
>  <compound>
CC(C)(c1ccc(OCC2CO2)cc1)c1ccc(OCC2CO2)cc1 (stereo not shown) [BADGE, Bisphenol A diglycidyl ether]

>  <class name>
condition met

$$$$
>  <compound>
Oc1ccc(C(c2ccc(O)cc2)(C(F)(F)F)C(F)(F)F)cc1 [BPAF]

>  <class name>
condition met

$$$$

Please find the next compound below.
Hi there! Is logIC10 for O=S(=O)(c1ccc(O)cc1)c1ccc(O)cc1 [BPS, 4,4'-Sulfonyldiphenol] below -4, do you know?
condition not met
